# System: Ribosomal RNA A-site
# testSummary: Displacement of F-NEO from human mitochondrial rRNA-A site after 10 to 20 mins by fluorescence assay relative to NEO
# Assay type: nucleic-acid assay
# Set-up: concentration or dose not given beside the values
inhibition overview
Lab book: enter the figure in %, no units written.

Consider the reported inhibition for these molecules:
>>> experimentalresult("NC[C@@H]1O[C@H](O[C@H]2[C@@H](O)[C@H](O[C@@H]3[C@@H](O)[C@H](N)C[C@H](N)[C@H]3O[C@H]3O[C@H](CN)[C@@H](O)[C@H](O)[C@H]3N)O[C@@H]2CSCCNC(=O)CCc2ccc3ccc4cccc5ccc2c3c45)[C@H](N)[C@@H](O)[C@@H]1O")
88
>>> experimentalresult("NC[C@@H]1O[C@H](O[C@H]2[C@@H](O)[C@H](O[C@@H]3[C@@H](O)[C@H](N)C[C@H](N)[C@H]3O[C@H]3O[C@H](CN)[C@@H](O)[C@H](O)[C@H]3N)O[C@@H]2CSCCNC(=O)CCCc2ccc3ccc4cccc5ccc2c3c45)[C@H](N)[C@@H](O)[C@@H]1O")
74

We next turn to a different molecule, shown below.
[Q] Need inhibition of NC[C@@H]1O[C@H](O[C@H]2[C@@H](O)[C@H](O[C@@H]3[C@@H](O)[C@H](N)C[C@H](N)[C@H]3O[C@H]3O[C@H](CN)[C@@H](O)[C@H](O)[C@H]3N)O[C@@H]2CSCCNC(=O)Cc2ccc3ccc4cccc5ccc2c3c45)[C@H](N)[C@@H](O)[C@@H]1O , thanks.
[A] 102
